# assay_remarks: Pharmacokinetic evaluation after intravenous or gavage administration to rats
# Assay type: in vivo, SD rats
# experimental_parameters: SD, rat, plasma, iv; rats, i.v group, 1 mg/kg; read-out: AUClast
outcome_measure: AUC(0-t)

INPUT: Could you please provide reported AUC(0-t) for CN1CCC(=C(F)c2cccc(NC(=O)c3c(F)cc(F)cc3F)n2)CC1 [Example 12] ? Thanks!
OUTPUT: 111 ng·h/mL

* * *

# assay_remarks: Pharmacokinetic evaluation after intravenous or gavage administration to dogs
# Type: in vivo, Beagle dogs
# experimental_parameters: Beagle, dog, plasma, po; dogs, i.g group, 5 mg/kg; read-out: Tmax
outcome_measure: Tmax (h)
Numbers only, in h.

INPUT: Supply recorded Tmax for CN1CCC(=C(F)c2cccc(NC(=O)c3c(F)cc(F)cc3F)n2)CC1 [Example 12] here.
OUTPUT: 1.67
